Source listed as patent US20160152728A1.

study-system: EGFRvIII-Fc fusion antigen (human, UniProt P00533 25-645)
protocol-description: SPR Biacore T200, EGFRvIII-Fc captured via anti-hu Fc, scFv analyte, 1:1 model;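 note: Multi-cycle kinetics on a CM5 chip in HBS-P+ running buffer, 180 s scFv association then 540 s dissociation, with blank flow cell signals subtracted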
The entries below come with measured koff values attached.
Number in s⁻¹, nothing else.

Below, each entry is followed by its recorded koff result.
scFv 471 (scFv, V domains shown, One-chain scFv, His-tagged) VH: EVQLVQSGAEVKKPGESLKISCKGSGYSFNSYWIGWVRQMPGKGLEWMGIIYPGDSANRYSPSFQGQVTISADKSISTAYLQWSSLKASDTAMYYCARLGSSWTNDAFDIWGQGTLVTVSS VL: SYELTQPPSVSVSPGQTARITCSGDYLPKQYAYWYQQKPGQAPVLVIYKDTERPSGIPERFSGSSSGTTVTLTISGVQAEDEADYYCQSVDSSHPSVVFGGGTKLTVL
0.00029
scFv 469 (scFv, V domains shown, One-chain scFv, His-tagged) VH: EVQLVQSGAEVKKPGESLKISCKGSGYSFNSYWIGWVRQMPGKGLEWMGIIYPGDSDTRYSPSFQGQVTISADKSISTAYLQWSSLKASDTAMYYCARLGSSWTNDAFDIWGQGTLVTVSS VL: SYELTQPPSVSVSPGQTARITCSGDTLPKQYAYWYQQKPGQAPVLVIYKDSERPSGIPERFSGSSSGTTVTLTISGVQAEDEADYYCQSVDVSGTYVVFGGGTKLTVL
0.0006
scFv 472 (scFv, V domains shown, One-chain scFv, His-tagged) VH: EVQLVQSGAEVKKPGESLKISCKGSGYSFGYYWIGWVRQMPGKGLEWMGIIYPGDSHTRYSPSFQGQVTISADKSISTAYLQWSSLKASDTAMYYCARLGSSWTNDAFDIWGQGTLVTVSS VL: SYELTQPPSVSVSPGQTARITCSGDALPKQYAYWYQQKPGQAPVLVIYKDTERPSGIPERFSGSSSGTTVTLTISGVQAEDEADYYCQSVDSSGTQVVFGGGTKLTVL
0.0003
scFv 477 (scFv, V domains shown, One-chain scFv, His-tagged) VH: EVQLVQSGAEVKKPGESLKISCKGSGYSFSSYWIGWVRQMPGKGLEWMGIIYPGDSDTRYSPSFQGQVTISADKSISTAYLQWSSLKASDTAMYYCARLGSSWTNDAFDIWGQGTLVTVSS VL: SYELTQPPSVSVSPGQTARITCSGDYLPKQYAYWYQQKPGQAPVLVIYKDTERPSGIPERFSGSSSGTTVTLTISGVQAEDEADYYCQSADASGTYYVFGGGTKLTVL
0.0038
scFv 473 (scFv, V domains shown, One-chain scFv, His-tagged) VH: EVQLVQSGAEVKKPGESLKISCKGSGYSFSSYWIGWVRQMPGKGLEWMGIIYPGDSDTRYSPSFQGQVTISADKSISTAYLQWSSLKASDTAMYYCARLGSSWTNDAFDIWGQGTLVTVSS VL: SYELTQPPSVSVSPGQTARITCSGHALPSQYAYWYQQKPGQAPVLVIYKDTERPSGIPERFSGSSSGTTVTLTISGVQAEDEADYYCQSVDSSGTSVIFGGGTKLTVL
0.0008

Suppose we examine the binder scFv 470 (scFv, V domains shown, One-chain scFv, His-tagged) VH: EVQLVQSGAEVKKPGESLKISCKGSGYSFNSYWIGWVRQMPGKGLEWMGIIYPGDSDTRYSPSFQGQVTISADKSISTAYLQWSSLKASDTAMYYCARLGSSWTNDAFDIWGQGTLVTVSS VL: SYELTQPPSVSVSPGQTARITCSGDALDKQYAYWYQQKPGQAPVLVIYKDSERPSGIPERFSGSSSGTTVTLTISGVQAEDEADYYCQSVDSSETYVVFGGGTKLTVL ; what koff value has been reported?
0.0005

scFv 478 (scFv, V domains shown, One-chain scFv, His-tagged) VH: EVQLVQSGAEVKKPGESLKISCKGSGYSFNSYWIGWVRQMPGKGLEWMGIIYPGDEDTRYSPSFQGQVTISADKSISTAYLQWSSLKASDTAMYYCARLGSSWTNDAFDIWGQGTLVTVSS VL: SYELTQPPSVSVSPGQTARITCSGDALPKQYAYWYQQKPGQAPVLVIYKDTERPSGIPERFSGSSSGTTVTLTISGVQAEDEADYYCQSVDPSGTYVVFGGGTKLTVL , same question.
0.00023

Entry to check: scFv 476 (scFv, V domains shown, One-chain scFv, His-tagged) VH: EVQLVQSGAEVKKPGESLKISCKGSGYSFTSYWIGWVRQMPGKGLEWMGIIYPGDSDTRYSPSFQGQVTISADKSISTAYLQWSSLKASDTAMYYCARLGSSWTNDAFDIWGQGTLVTVSS VL: SYELTQPPSVSVSPGQTARITCSGDNIPHQYAYWYQQKPGQAPVLVIYKDTERPAGIPERFSGSSSGTTVTLTISGVQAEDEADYYCQSADPTGAYLVFGGGTKLTVL
0.0011
